Molecular target: Cytochrome P450 2C9 (Homo sapiens)
Assay: Cytochrome P450 Family 2 Subfamily C Member 9 (CYP2C9) small molecule antagonists: luciferase reporter qHTS assay (AID 1671198); note: % is set by controls: 0 for no effect and ±100 for the full control effect; nearly all actives have a fitted effect of over 50% in size
Details: P450-Glo CYP2C9 enzyme assay, luciferin luminescence; series mostly up to 115 µM
Inconclusive results are not listed. Calls of active or inactive are those of the source. Calls come from the whole dose curve; as a rule, active = well fitted inhibition curve with a large enough effect in the repeat runs; inconclusive = weak or mixed curves; inactive = no such curve, though single readings can be large or run the other way.
experimental.endpoint: outcome

Some molecules with known outcome results, for comparison:
molecule: C[N+](C)(C)CC(O)CC(=O)[O-] (stereo not given)
experimental.endpoint: outcome
endpoint.result: inactive
--
molecule: COc1cc(C(=O)N2CCCCCCC2)cc(OC)c1OC
experimental.endpoint: outcome
endpoint.result: inactive
--
molecule: OC(CCN1CCCCC1)(c1ccccc1)C1CC2C=CC1C2 (stereo not given)
experimental.endpoint: outcome
endpoint.result: inactive
--
molecule: COCCCOCCCOC
experimental.endpoint: outcome
endpoint.result: inactive

Could you now consider this next molecule?
Exercise: Identify measured outcome corresponding to `CCOC(=O)[C@H](CCc1ccccc1)N[C@@H](C)C(=O)N1[C@H](C(=O)O)C[C@@H]2CCC[C@@H]21`
Solution: inactive

###

Assay: qHTS RealTime-Glo MT Cell Viability Assay in HEK293 cells - 40 hour (AID 1224874); note: % is set by controls: 0 for no effect and ±100 for the full control effect; nearly all actives have a fitted effect of over 50% in size
Conditions: RealTime-Glo luminescence; hits give low values
Records with an inconclusive call do not appear.
experimental.endpoint: max response (%)
The reply should contain only the number, in %.

Some molecules with known max response results, for comparison:
molecule: Cc1cccn2c(=O)c(-c3nnn[nH]3)cnc12
experimental.endpoint: max response
endpoint.result: 1.37
--
molecule: Cc1cnc(NS(=O)(=O)c2ccc(N)cc2)nc1
experimental.endpoint: max response
endpoint.result: 2.61
--
molecule: COC(=O)c1ccc(C)cc1C1=NC(C)(C(C)C)C(=O)N1 (stereo not given)
experimental.endpoint: max response
endpoint.result: 5.2
--
molecule: O=[N+]([O-])c1ccc(F)cc1F
experimental.endpoint: max response
endpoint.result: 9.7
--
molecule: C=C(C)C(=O)OCCCCCCCC(C)C
experimental.endpoint: max response
endpoint.result: -8.22
--
molecule: CCN(CC)CCNC(=O)c1cc(S(C)(=O)=O)ccc1OC
experimental.endpoint: max response
endpoint.result: 3.02
--
molecule: CCCCCCCCCCCCCC=O
experimental.endpoint: max response
endpoint.result: 5.19
--
molecule: N[C@H](C(=O)O)c1ccc(O)cc1
experimental.endpoint: max response
endpoint.result: 2.28
--
molecule: Cn1cc(S(C)=O)c(=O)c2ccc(F)cc21 (stereo not given)
experimental.endpoint: max response
endpoint.result: -13.8
--
molecule: COC(=O)C1=C(C)NC(C)=C(C(=O)OC)C1c1ccccc1[N+](=O)[O-]
experimental.endpoint: max response
endpoint.result: -16.8

Exercise: Identify measured max response corresponding to `C1OCOCO1`
Solution: 2.99

Exercise: Identify measured max response corresponding to COC(C)(C)CCCC(C)CC=O (stereo not given)
Solution: 3.83

Exercise: Identify measured max response corresponding to `CS(=O)(=O)O`
Solution: 2.93

Exercise: Identify measured max response corresponding to `C=C1CC[C@H]2C[C@@H]1C2(C)C`
Solution: 5.42

Exercise: Identify measured max response corresponding to `COC(=O)CC(C)=O`
Solution: 11.5

Exercise: Identify measured max response corresponding to `CC1(C)CO[C@@H](CC(=O)O)CN1`
Solution: 4.58

Exercise: Identify measured max response corresponding to `COc1nc(N)nc2c1ncn2[C@@H]1O[C@H](CO)[C@@H](O)[C@@H]1O`
Solution: 14.1

Exercise: Identify measured max response corresponding to `CCn1nc(C(=O)O)c(=O)c2cc3c(cc21)OCO3`
Solution: 4.37

Exercise: Identify measured max response corresponding to `OCCOc1ccc(OCCO)cc1`
Solution: 19.3

Exercise: Identify measured max response corresponding to `CC(C)NC(=O)NC(C)C`
Solution: 4.41

Exercise: Identify measured max response corresponding to `N=C(N)c1ccc(OCCCOc2ccc(C(=N)N)cc2)cc1`
Solution: 1.81

Exercise: Identify measured max response corresponding to `Cc1nc2c([nH]1)c(=O)n(C)c(=O)n2Cc1ccco1`
Solution: 1.42
